System: weeds
Assay: Actual control effects and combined effects of mixtures of active ingredients (i) and (ii), stem-leaf treatment, Gowing method
Format: in vivo
Details: Echinochloa phyllopogon; (ii) 15 g a.i./mu; 20 days
Method: According to the actual control effect and the property of the herbicides, the balance of the formula and other factors, the optimal ratio was determined. In the calculation formula: X represents the fresh weight inhibition rate when the active ingredient (i) is used in an amount of P; and Y represents the fresh weight inhibition rate when the active ingredient (ii) is used in an amount of Q. The statistical results are shown in Tables 9-11 below.
Lab note: anything with Control effect of (ii) alone at corresponding dose below 40% is marked class 1; values at 40% or higher are marked class 0.

Worked examples, 5 molecules total:
molecule="CCCOCCN(C(=O)CCl)c1c(CC)cccc1CC [Pretilachlor]" label_class="class 0"
molecule="CCCCOCN(C(=O)CCl)c1c(CC)cccc1CC [Butachlor]" label_class="class 1"
molecule="CN(C(=O)COc1nc2ccccc2s1)c1ccccc1 [Mefenacet]" label_class="class 0"
molecule="CC(C)Oc1cc(-n2nc(C(C)(C)C)oc2=O)c(Cl)cc1Cl [Oxadiazon]" label_class="class 0"
molecule="CCNc1nc(NCC)nc(SC)n1 [Simetryn]" label_class="class 0"

# ---- query molecule ----
Ask: Strictly below 40%: is that where Control effect of (ii) alone at corresponding dose of CCNc1nc(Cl)nc(NC(C)(C)C)n1 [Terbuthylazine] sits?
Reply: class 1

---

Form field: Selection index between rice and Echinochloa crusgali (one value per entry).
Tested on: rice and Echinochloa crusgali
Test: Herbicide selection index between rice and Echinochloa crusgali
Type: in vivo
Conditions: average dose causing 10% phytotoxicity to rice divided by average dose causing 90% control efficiency to Echinochloa crusgali

Reference set, count: 5
compound="Cc1nnc(NC(=O)c2ccc(C(F)(F)F)c(S(C)(=O)=O)c2C)o1 [Control Compound B, reference compound]" target_under_test="rice and Echinochloa crusgali" reported=0.8
compound="CCS(=O)(=O)c1c(C(F)(F)F)ccc(C(=O)Nc2nnc(C)o2)c1Cl [Control Compound D, reference compound]" target_under_test="rice and Echinochloa crusgali" reported=1
compound="Cc1nnc(NC(=O)c2ccc(C(F)(F)F)c([S+]([O-])C3COC3)c2F)o1 (stereo not drawn)" target_under_test="rice and Echinochloa crusgali" reported=>5
compound=CCCSc1c(C(F)(F)F)ccc(C(=O)Nc2nnc(C)o2)c1F target_under_test="rice and Echinochloa crusgali" reported=>5
compound=CCCS(=O)(=O)c1c(C(F)(F)F)ccc(C(=O)Nc2nnc(C)o2)c1F target_under_test="rice and Echinochloa crusgali" reported=>5

Okay, next one:
Ask: Find the measured Selection index between rice and Echinochloa crusgali of COCC[S+]([O-])c1c(C(F)(F)F)ccc(C(=O)Nc2nnc(C)o2)c1F (racemic) and report it.
Reply: >5

---

Form field: Control effect of (ii) alone at corresponding dose (one value per entry).
Test system: weeds
Experiment: Actual control effects and combined effects of mixtures of active ingredients (i) and (ii), stem-leaf treatment, Gowing method
Assay type: in vivo
Conditions: Echinochloa phyllopogon; (ii) 15 g a.i./mu; 20 days
Hi! Could you send only the number? It should be in %, unit omitted.

Reference set, count: 2
structure_notation=O=C(O)c1c(Cl)ccc2cc(Cl)cnc12 reported=52.9
structure_notation=Cc1ccc(NC(=O)N(C)C)cc1Cl reported=57.6

Okay, next one:
Ask: Find the measured Control effect of (ii) alone at corresponding dose of CCNc1nc(Cl)nc(NC(C)C)n1 and report it.
Reply: 30.6
